assay: Pharmacokinetics assay in rats, intragastric administration, plasma by LC/MS/MS; format: in vivo, Sprague-Dawley (SD) rats; conditions: both sexes, Sprague-Dawley, rat, plasma, po, SD rats, 10 mg/kg, read-out: Area Under Curve AUC
Outcome label depends on AUC relative to 5000 ng·h/mL: at/above gives Yes, below gives No.

compound=CN(c1ncnc2[nH]ccc12)[C@H]1C[C@@H]2CN(C(=O)CCC#N)C[C@@H]2C1 group_label=Yes
compound=CN(c1ncnc2[nH]ccc12)[C@H]1C[C@@H]2CN(C(=O)Nc3nc(OCC(C)(C)O)ns3)C[C@@H]2C1 group_label=Yes
compound=C[C@H](O)C(=O)N1C[C@H]2C[C@H](N(C)c3ncnc4[nH]ccc34)C[C@H]2C1 group_label=No
compound="CC(=O)N1CC[C@H]2CC(N(C)c3ncnc4[nH]ccc34)C[C@H]2C1 (some centres unmarked)" group_label=No
compound=CN(c1ncnc2[nH]ccc12)[C@H]1C[C@H]2CNC(=O)C[C@H]2C1 group_label=Yes
compound=COc1nsc(NC(=O)N2C[C@H]3C[C@H](N(C)c4ncnc5[nH]ccc45)C[C@H]3C2)n1 group_label=Yes
compound=CN(c1ncnc2[nH]ccc12)[C@H]1C[C@@H]2CN(C(=O)CO)C[C@@H]2C1 group_label=No
compound=CN(c1ncnc2[nH]ccc12)[C@H]1C[C@@H]2CN(C(=O)Nc3nc(C4CC4)ns3)C[C@@H]2C1 group_label=Yes
compound=CCc1nsc(NC(=O)N2C[C@H]3C[C@H](N(C)c4ncnc5[nH]ccc45)C[C@H]3C2)n1 group_label=Yes
compound="CN(c1ncnc2[nH]ccc12)[C@@H]1CC2CNC(=O)CC2C1 (some centres unmarked)" group_label=Yes
compound=CN(c1ncnc2[nH]cc(F)c12)[C@H]1C[C@@H]2CN(C(=O)CO)C[C@@H]2C1 group_label=No

====

target: JAK2 kinase (Homo sapiens (Human), UniProt O60674)
Sequence (O60674 whole entry): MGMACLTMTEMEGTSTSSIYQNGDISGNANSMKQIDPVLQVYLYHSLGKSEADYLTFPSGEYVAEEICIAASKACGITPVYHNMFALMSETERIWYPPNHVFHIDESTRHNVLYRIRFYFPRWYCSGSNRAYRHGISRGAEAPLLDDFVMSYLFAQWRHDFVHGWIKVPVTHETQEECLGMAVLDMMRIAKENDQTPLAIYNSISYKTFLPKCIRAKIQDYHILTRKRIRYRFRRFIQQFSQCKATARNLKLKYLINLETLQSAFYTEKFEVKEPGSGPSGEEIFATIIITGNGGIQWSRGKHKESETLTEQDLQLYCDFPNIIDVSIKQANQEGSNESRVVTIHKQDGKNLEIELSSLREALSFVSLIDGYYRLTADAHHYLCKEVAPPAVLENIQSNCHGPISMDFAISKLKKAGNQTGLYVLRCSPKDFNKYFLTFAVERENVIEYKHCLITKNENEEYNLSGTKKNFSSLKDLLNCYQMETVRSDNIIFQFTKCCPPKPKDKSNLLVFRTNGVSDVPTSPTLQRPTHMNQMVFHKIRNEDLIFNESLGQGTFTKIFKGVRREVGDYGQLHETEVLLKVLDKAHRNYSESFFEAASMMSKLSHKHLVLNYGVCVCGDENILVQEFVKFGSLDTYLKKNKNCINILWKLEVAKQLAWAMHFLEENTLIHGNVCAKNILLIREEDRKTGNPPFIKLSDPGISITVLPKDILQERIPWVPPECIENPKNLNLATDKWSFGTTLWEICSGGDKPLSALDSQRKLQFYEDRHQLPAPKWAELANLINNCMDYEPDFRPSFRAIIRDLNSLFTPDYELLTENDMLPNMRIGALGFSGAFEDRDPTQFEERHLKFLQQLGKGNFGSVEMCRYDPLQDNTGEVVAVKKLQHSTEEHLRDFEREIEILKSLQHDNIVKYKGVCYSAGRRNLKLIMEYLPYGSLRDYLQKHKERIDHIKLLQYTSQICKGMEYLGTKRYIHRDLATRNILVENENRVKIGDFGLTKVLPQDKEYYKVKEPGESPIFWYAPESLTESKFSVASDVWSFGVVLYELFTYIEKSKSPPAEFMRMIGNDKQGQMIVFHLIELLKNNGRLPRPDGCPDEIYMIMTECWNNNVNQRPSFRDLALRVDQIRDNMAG
pIC50: −log10 of the molar value.
Observed property: pIC50

compound="CN(C[C@H]1[C@@H]2CN(C(=O)C3CC3)C[C@@H]21)c1ncnc2[nH]ccc12 [Example 135]" observed_property=pIC50 value_reported=8.70
compound="CN(c1ncnc2[nH]ccc12)[C@H]1C[C@@H]2CN(CC(F)(F)F)C[C@@H]2C1 [Example 56]" observed_property=pIC50 value_reported=7.49
compound="CC(C)C(=O)N1CC[C@H]2C[C@@H](N(C)c3ncnc4[nH]ccc34)C[C@H]2C1 [Example 151]" observed_property=pIC50 value_reported=6.90
compound="CN(c1ncnc2[nH]ccc12)C1C[C@@H]2CCN(C(=O)CO)C[C@@H]2C1 (stereo partly shown) [Example 37]" observed_property=pIC50 value_reported=7.14
compound="CN(c1ncnc2[nH]ccc12)[C@H]1C[C@@H]2CN(C(=O)Nc3nncs3)C[C@@H]2C1 [Example 86]" observed_property=pIC50 value_reported=7.28
compound="CN(c1ncnc2[nH]ccc12)[C@H]1C[C@@H]2CN(C(=O)Nc3nc(CO)ns3)C[C@@H]2C1 [Example 50]" observed_property=pIC50 value_reported=8.15
compound="COC(=O)CN1C[C@@H]2[C@H](C1)[C@H]2CN(C)c1ncnc2[nH]ccc12 [Example 134]" observed_property=pIC50 value_reported=7.22

====

molecular target: JAK1 kinase (Homo sapiens (Human), UniProt P23458)
Sequence (P23458 whole entry): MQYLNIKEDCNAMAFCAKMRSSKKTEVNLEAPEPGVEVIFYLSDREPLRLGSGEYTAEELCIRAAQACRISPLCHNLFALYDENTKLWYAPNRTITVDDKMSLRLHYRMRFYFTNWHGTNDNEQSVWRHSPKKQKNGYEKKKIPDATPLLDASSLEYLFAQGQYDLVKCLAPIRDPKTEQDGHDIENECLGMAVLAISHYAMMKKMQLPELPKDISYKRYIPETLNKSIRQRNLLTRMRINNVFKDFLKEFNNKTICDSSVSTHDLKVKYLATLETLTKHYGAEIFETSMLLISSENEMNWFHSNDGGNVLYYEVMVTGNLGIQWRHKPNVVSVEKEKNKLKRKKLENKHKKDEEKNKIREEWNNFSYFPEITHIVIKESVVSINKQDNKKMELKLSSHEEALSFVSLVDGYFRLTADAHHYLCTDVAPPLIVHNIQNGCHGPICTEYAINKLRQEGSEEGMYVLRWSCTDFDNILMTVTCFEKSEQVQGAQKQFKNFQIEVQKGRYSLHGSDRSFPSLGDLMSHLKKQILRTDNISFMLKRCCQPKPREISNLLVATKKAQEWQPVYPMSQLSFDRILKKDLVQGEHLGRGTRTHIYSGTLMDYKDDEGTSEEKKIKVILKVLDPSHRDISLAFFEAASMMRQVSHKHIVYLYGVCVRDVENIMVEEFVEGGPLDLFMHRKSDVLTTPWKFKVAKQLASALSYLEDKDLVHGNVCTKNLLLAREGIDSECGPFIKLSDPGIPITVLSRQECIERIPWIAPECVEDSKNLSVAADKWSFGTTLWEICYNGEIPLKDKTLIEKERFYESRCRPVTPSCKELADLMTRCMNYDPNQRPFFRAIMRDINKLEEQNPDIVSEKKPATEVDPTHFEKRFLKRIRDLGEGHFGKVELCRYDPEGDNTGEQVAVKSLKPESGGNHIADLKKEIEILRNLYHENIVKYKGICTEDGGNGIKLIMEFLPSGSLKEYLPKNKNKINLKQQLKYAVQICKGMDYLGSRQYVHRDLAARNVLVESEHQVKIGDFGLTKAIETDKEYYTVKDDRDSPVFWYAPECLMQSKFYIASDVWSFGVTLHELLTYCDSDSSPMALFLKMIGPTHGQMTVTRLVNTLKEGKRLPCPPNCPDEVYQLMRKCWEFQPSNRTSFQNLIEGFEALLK
Each record is given Yes if its reported IC50 is strictly below 10 nM. Records at or above 10 nM are given No.

compound=CCc1nsc(NC(=O)N2C[C@H]3C[C@H](N(C)c4ncnc5[nH]ccc45)C[C@H]3C2)n1 group_label=Yes
compound=CN(c1ncnc2[nH]c(F)cc12)[C@H]1C[C@@H]2CN(C(=O)CO)C[C@@H]2C1 group_label=No
compound=CN(c1ncnc2[nH]ccc12)[C@H]1C[C@@H]2CN(C(=O)C(C)(C)O)C[C@@H]2C1 group_label=No
compound=CN(c1ncnc2[nH]ccc12)[C@@H]1C[C@@H]2CN(CCC#N)C[C@@H]2C1 group_label=No
compound=C[C@H](O)C(=O)N1C[C@H]2C[C@H](N(C)c3ncnc4[nH]ccc34)C[C@H]2C1 group_label=Yes
compound="CN(c1ncnc2[nH]ccc12)C1C[C@@H]2CCN(C(=O)CC#N)C[C@@H]2C1 (stereo partly drawn)" group_label=No
compound=CN(c1ncnc2[nH]ccc12)[C@H]1C[C@@H]2CN(C(=O)CO)C[C@@H]2C1 group_label=Yes
compound=CN(c1ncnc2[nH]cc(F)c12)[C@H]1C[C@@H]2CN(C(=O)CO)C[C@@H]2C1 group_label=No
compound=CN(c1ncnc2[nH]ccc12)[C@@H]1C[C@@H]2CN(C(=O)Nc3nncs3)C[C@@H]2C1 group_label=No
compound=CN(c1ncnc2[nH]ccc12)[C@H]1C[C@@H]2CN(CC(F)(F)F)C[C@@H]2C1 group_label=No
compound=CN(c1ncnc2[nH]ccc12)[C@@H]1C[C@@H]2CN(C(=O)CCC#N)C[C@@H]2C1 group_label=No
compound="COC(=O)N1CC[C@H]2CC(N(C)c3ncnc4[nH]ccc34)C[C@H]2C1 (stereo partly drawn)" group_label=No
compound=C[C@@H](O)C(=O)N1C[C@H]2C[C@@H](N(C)c3ncnc4[nH]ccc34)C[C@H]2C1 group_label=No
compound=CN(c1ncnc2[nH]ccc12)[C@H]1C[C@@H]2CN(S(C)(=O)=O)C[C@@H]2C1 group_label=No
compound=COc1nnc(NC(=O)N2C[C@H]3C[C@H](N(C)c4ncnc5[nH]ccc45)C[C@H]3C2)s1 group_label=Yes
compound=COC(=O)CN1C[C@H]2C[C@H](N(C)c3ncnc4[nH]ccc34)C[C@H]2C1 group_label=No
compound=C[C@H](O)C(=O)N1C[C@H]2C[C@@H](N(C)c3ncnc4[nH]ccc34)C[C@H]2C1 group_label=No
compound=CN(c1ncnc2[nH]ccc12)[C@H]1C[C@@H]2CN(CC#N)C[C@@H]2C1 group_label=No
compound=CC(=O)N1C[C@H]2C[C@H](N(C)c3ncnc4[nH]ccc34)C[C@H]2C1 group_label=No
compound=Cc1noc(N2C[C@H]3C[C@H](N(C)c4ncnc5[nH]ccc45)C[C@H]3C2)n1 group_label=No
compound=CN(c1ncnc2[nH]ccc12)[C@@H]1C[C@@H]2CN(CC#N)C[C@@H]2C1 group_label=Yes
compound=CN(c1ncnc2[nH]ccc12)[C@H]1C[C@@H]2CN(C(=O)[C@H](O)c3ccccc3)C[C@@H]2C1 group_label=No
compound=CN(c1ncnc2[nH]ccc12)[C@H]1C[C@@H]2CN(C(=O)CC#N)C[C@@H]2C1 group_label=No
compound=CN(c1ncnc2[nH]ccc12)[C@H]1C[C@@H]2CN(C(=O)OC(C)(C)C)C[C@@H]2C1 group_label=No
compound=CN(c1ncnc2[nH]ccc12)[C@H]1C[C@@H]2CN(C(=O)Nc3nc(CO)ns3)C[C@@H]2C1 group_label=Yes
compound=CN(c1ncnc2[nH]ccc12)[C@H]1C[C@@H]2CN(CCC#N)C[C@@H]2C1 group_label=No
compound="CN(c1ncnc2[nH]ccc12)C1C[C@@H]2CCN(C(=O)CO)C[C@@H]2C1 (stereo partly drawn)" group_label=No
compound=CN(c1ncnc2[nH]ccc12)[C@H]1C[C@@H]2CN(C(=O)Nc3nc(C4CC4)ns3)C[C@@H]2C1 group_label=Yes
compound=CN(c1ncnc2[nH]ccc12)[C@H]1C[C@@H]2CN(C(=O)C3CC3)C[C@@H]2C1 group_label=No
